// provenance: the NIST ThermoML archive (doi:10.1007/s10765-008-0497-7)

# stated-conditions: 343.15 K; 100 kPa; Liquid; Moving piston method
readout-kind: viscosity (mPa·s)
Numbers only; they are read as mPa·s.

Here are 4 compounds together with their reported answers.
| compound | viscosity / mPa·s |
| --- | --- |
| CCCCCCCCCCn1cc[n+](C)c1.O=S(=O)([N-]S(=O)(=O)C(F)(F)F)C(F)(F)F | 18.15 |
| CCn1cc[n+](C)c1.O=S(=O)([N-]S(=O)(=O)C(F)(F)F)C(F)(F)F | 9.6 |
| CCCCCCn1cc[n+](C)c1.F[P-](F)(F)(F)(F)F [1-hexyl-3-methylimidazolium hexafluorophosphate] | 48.1 |
| CCCCCC[n+]1ccn(C)c1.O=S(=O)([N-]S(=O)(=O)C(F)(F)F)C(F)(F)F | 14.07 |

Then there is this compound:
Query CCCCCCn1cc[n+](C)c1.F[B-](F)(F)F [1-hexyl-3-methylimidazolium tetrafluoroborate] yields viscosity of 27
